B1: Ankyrin-2, residues 3571 to 3650; numbered along this chain, Q01484 (parent)
chain: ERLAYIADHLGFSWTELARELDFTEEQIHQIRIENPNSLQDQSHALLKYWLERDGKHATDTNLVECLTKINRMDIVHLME

- Variants of: B1
- procedure-summary: abundance fitness (aPCA) (normalised: wild type 0, dead -1); higher = more abundant; growth selection in yeast, the domain comes from the species named
- conditions: Homo sapiens
Classification field. Basis: abundance fitness. Definitions: low (below -0.1), mid (-0.1 to below -0.02), high (-0.02 or more)

| residues | category-label |
| --- | --- |
| ERLAYIADHLGFSWTELARELDFTEEQIHQIRIENPNSLQDQSHALLKYWLERRGKHATDTNLVECLTKINRMDIVHLME [D54R] | mid |
| ERLAYIADHLGFSWTELAREFDFTEEQIHQIRIENPNSLQDQSHALLKYWLERDGKHATDTNLVECLTKINRMDIVHLME [L21F] | high |
| ERLAYIADHLGFSWTELARELSFTEEQIHQIRIENPNSLQDQSHALLKYWLERDGKHATDTNLVECLTKINRMDIVHLME [D22S] | high |
| ERLAYIADHMGFSWTELARELDFTEEQIHQIRIENPNSLQDQSHALLKYWLERDGKHATDTNLVECLTKINRMDIVHLME [L10M] | low |
| ERLAYIADHLGFSWTELARELDFTEEQIHPIRIENPNSLQDQSHALLKYWLERDGKHATDTNLVECLTKINRMDIVHLME [Q30P] | low |
| ERLAYIADHLGFSWTELARELDFTEEQIHQIRIENPNVLQDQSHALLKYWLERDGKHATDTNLVECLTKINRMDIVHLME [S38V] | mid |
| ERLAYIADHLGFSWTELARELDFNEEQIHQIRIENPNSLQDQSHALLKYWLERDGKHATDTNLVECLTKINRMDIVHLME [T24N] | high |
| ERLAYIADHLGFSWTELARELDFTEEQIRQIRIENPNSLQDQSHALLKYWLERDGKHATDTNLVECLTKINRMDIVHLME [H29R] | low |
| ERLAYIADHLGFSWTELARELDFTEEQIHQIRIENPNSLQDQSHALLKYWLERAGKHATDTNLVECLTKINRMDIVHLME [D54A] | mid |
| ERLAYIADHLGFSWTELARELDFTEHQIHQIRIENPNSLQDQSHALLKYWLERDGKHATDTNLVECLTKINRMDIVHLME [E26H] | high |
| ERLAYIADHLGFSWTELARELDFTEETIHQIRIENPNSLQDQSHALLKYWLERDGKHATDTNLVECLTKINRMDIVHLME [Q27T] | high |
| ERLAYIADHLGFSWTELARELDFTEEQIHQIRIENPNHLQDQSHALLKYWLERDGKHATDTNLVECLTKINRMDIVHLME [S38H] | low |
| ERLAYIADHLGFSWTELARELDFTEEQHHQIRIENPNSLQDQSHALLKYWLERDGKHATDTNLVECLTKINRMDIVHLME [I28H] | low |
| ERLAYIADHLGNSWTELARELDFTEEQIHQIRIENPNSLQDQSHALLKYWLERDGKHATDTNLVECLTKINRMDIVHLME [F12N] | low |
| ERLAYIADHLGFSWTELARELDFTEEQIHQIRIENPNSLQDQSHALLKYWLERDNKHATDTNLVECLTKINRMDIVHLME [G55N] | high |
| ERLAYIADHLGFSWTELARELDFTEEQIHQIRIEDPNSLQDQSHALLKYWLERDGKHATDTNLVECLTKINRMDIVHLME [N35D] | low |
| ERLAYIADHLGFSWTELARELDFTEEQIHQIRIENPNSLQDQSHALLKYWLEVDGKHATDTNLVECLTKINRMDIVHLME [R53V] | mid |
| ERLAYIADHLGFSWTELARELDFTEEQIHRIRIENPNSLQDQSHALLKYWLERDGKHATDTNLVECLTKINRMDIVHLME [Q30R] | high |
| ERLAYIADHLGFPWTELARELDFTEEQIHQIRIENPNSLQDQSHALLKYWLERDGKHATDTNLVECLTKINRMDIVHLME [S13P] | low |
| ERLAYIADHLGFSWTELARELDFTEEQIHQIRIRNPNSLQDQSHALLKYWLERDGKHATDTNLVECLTKINRMDIVHLME [E34R] | high |
| ERLGYIADHLGFSWTELARELDFTEEQIHQIRIENPNSLQDQSHALLKYWLERDGKHATDTNLVECLTKINRMDIVHLME [A4G] | high |
| ERLAYIADHLGFSWTELARELDFTEEQIHQIRIENPNSLLDQSHALLKYWLERDGKHATDTNLVECLTKINRMDIVHLME [Q40L] | low |
| ERLAYIADHQGFSWTELARELDFTEEQIHQIRIENPNSLQDQSHALLKYWLERDGKHATDTNLVECLTKINRMDIVHLME [L10Q] | low |
| ERLAYIADHLGFSWTELARELDFTEEQIHQIRIWNPNSLQDQSHALLKYWLERDGKHATDTNLVECLTKINRMDIVHLME [E34W] | mid |
| ERLAYIADHLGFSWTELARELDFTEEQIHQIRIENPNSLQDQSHALLKNWLERDGKHATDTNLVECLTKINRMDIVHLME [Y49N] | mid |
| ERLAYIADHLGFSWTELARELDFTEEQIHQIRIENPNSLQDQSHALRKYWLERDGKHATDTNLVECLTKINRMDIVHLME [L47R] | low |
| ERLAYIADHLGFSWTELARELDFTEEHIHQIRIENPNSLQDQSHALLKYWLERDGKHATDTNLVECLTKINRMDIVHLME [Q27H] | high |
| ERLAYIADHLGFSWTELARELDFTEEQIHQIRIENPNSLQDQSHALLKYWLERDGKRATDTNLVECLTKINRMDIVHLME [H57R] | mid |
| ERLAYIADHLGFSWTELARELDFTEEEIHQIRIENPNSLQDQSHALLKYWLERDGKHATDTNLVECLTKINRMDIVHLME [Q27E] | high |
| ERLAYIADHLGFSWTELARELDFTEEQIHQIRIENPNSLQDQSHALLKYWLERTGKHATDTNLVECLTKINRMDIVHLME [D54T] | high |
| ERLAYIADHLGFSWTELARELDFTEEQIHQIRIENPNSLQDQSHALLKYWLERDAKHATDTNLVECLTKINRMDIVHLME [G55A] | high |
| ERLAYIADHLGFSWTELARELDFTEEQIHQIRIENPNSLQDQSHALLKYHLERDGKHATDTNLVECLTKINRMDIVHLME [W50H] | low |
| ERLAYIADHLGFSWTELARELDFTEEQIHQIRIENPNSLQDQSHALLKYWLERDGFHATDTNLVECLTKINRMDIVHLME [K56F] | mid |
| ERLAYIADHLGFSWTELARESDFTEEQIHQIRIENPNSLQDQSHALLKYWLERDGKHATDTNLVECLTKINRMDIVHLME [L21S] | low |
| EGLAYIADHLGFSWTELARELDFTEEQIHQIRIENPNSLQDQSHALLKYWLERDGKHATDTNLVECLTKINRMDIVHLME [R2G] | low |
| ERLAYIADHLGFSWTELARELYFTEEQIHQIRIENPNSLQDQSHALLKYWLERDGKHATDTNLVECLTKINRMDIVHLME [D22Y] | low |
| ERLAYIADHLGFRWTELARELDFTEEQIHQIRIENPNSLQDQSHALLKYWLERDGKHATDTNLVECLTKINRMDIVHLME [S13R] | mid |
| ERLAYIADHSGFSWTELARELDFTEEQIHQIRIENPNSLQDQSHALLKYWLERDGKHATDTNLVECLTKINRMDIVHLME [L10S] | low |
| ERLAYIADHLGFSWTELARELDFTEEQIHQIRIENPNSLQDQSHALLKYWHERDGKHATDTNLVECLTKINRMDIVHLME [L51H] | mid |
| ERLAYIADHLGFSWTELARELDFTEGQIHQIRIENPNSLQDQSHALLKYWLERDGKHATDTNLVECLTKINRMDIVHLME [E26G] | mid |
| ERLAYIADHLGFSWTELARELDFTEEQIHQIRIENINSLQDQSHALLKYWLERDGKHATDTNLVECLTKINRMDIVHLME [P36I] | low |
| ERLAYIADHLGFSWTELARELDFTEEQIHQIRIENPNSLQDQSHALLKYWLERDGKHETDTNLVECLTKINRMDIVHLME [A58E] | mid |
| ERLAYIADHLGFSWTELARELDFTEEQIHQIRIEFPNSLQDQSHALLKYWLERDGKHATDTNLVECLTKINRMDIVHLME [N35F] | mid |
| ERLAYIADHLGFSWTELARELDFTEEQIHQIRIKNPNSLQDQSHALLKYWLERDGKHATDTNLVECLTKINRMDIVHLME [E34K] | mid |
| ERLAYIADHLGFSWTELARELDFTEEQIHQIRIENPNSLQDQSHALLKYWLEPDGKHATDTNLVECLTKINRMDIVHLME [R53P] | low |
